Source of measurements: PubChem BioAssay (NCI)

- Tested on: M14 melanoma
- testDescription: NCI-60 one-dose screen, 48 h
- experimentalSetup: 10 µM unless noted
Compounds without any hit were thinned out: in the full panel of roughly 83,000, 20% have a hit. Calls of active or inactive are those of the source. Rule for the calls: active = growth percent below 10; inactive = the rest.
Outcome codes: true (1) = active, false (0) = inactive

compound=CCNC(=O)Oc1ccc(/C(=C(/C)Cc2ccc(OC)cc2)c2ccc(OCCN(CC)CC)cc2)cc1 classlabel="true (1)"
compound=Cc1ccc(S(=O)(=O)OC[C@@]2(C)CC[C@]3(C)CC[C@]4(C)C(=C3C2)C=C[C@@H]2[C@@]3(C)CCCNC(C)(C)[C@@H]3CC[C@]24C)cc1 classlabel="true (1)"
compound=CCCCCCCCCCCCC[C@H](O)C[C@H](O)[C@H](C)N classlabel="false (0)"
compound=Cc1ccc(S(=O)(=O)OC[C@@]2(C)CC[C@]3(C)CC[C@]4(C)C(=CC[C@@H]5[C@@]6(C)CCCNC(C)(C)[C@@H]6CC[C@]54C)[C@@H]3C2)cc1 classlabel="true (1)"
compound="COc1nc(=O)n(C2C=CC(=O)O2)cc1F (centres undefined)" classlabel="false (0)"
compound=COc1ccc(-c2nc(Cl)c3c(C)nn(-c4ccc(F)cc4)c3n2)cc1 classlabel="false (0)"
compound=Nn1c(-c2ccc(Cl)cc2)nc2c(-c3ccc(Cl)cc3)nc3ccc(Cl)cc3c2c1=O classlabel="true (1)"
compound=COc1cc(N=Nc2ccc(O)c3ncccc23)c2ncccc2c1 classlabel="false (0)"
compound="CCCN1C(=O)/C(=c2\\sc3n(c2=O)C2C(NN=3)N(CC)C(=O)N2CC)c2ccccc21 (centres undefined)" classlabel="false (0)"
